For each entry below, report its IC50 value.
- Tested on: HepG2
- assayProcedure: Cytotoxicity against Homo sapiens (human) HepG2 cells after 48 hr by MTT reduction assay
- Format: functional, cell-based
- conditionSet: HepG2, 48 h

stdin: Which IC50 is listed for "O=c1cc(-c2ccccc2Cl)oc2c(CN3CCCCC3)cc(Cl)cc12" ?
stdout: 10.7 µM

stdin: How about "Cc1ccc2c(=O)cc(-c3ccccc3Cl)oc2c1" ?
stdout: 28.3 µM

stdin: How about "O=c1cc(-c2ccccc2Cl)oc2c(Cn3ccnc3)cc(Cl)cc12" ?
stdout: 3.27 µM

stdin: How about "Cc1ccc2oc(-c3ccccc3Cl)cc(=O)c2c1" ?
stdout: 6.23 µM

stdin: How about "CN(C)Cc1cc(Cl)cc2c(=O)cc(-c3ccc([N+](=O)[O-])cc3)oc12" ?
stdout: 6.19 µM

stdin: How about "CCN(CC)Cc1ccc2c(=O)cc(-c3ccccc3Cl)oc2c1" ?
stdout: 10.7 µM

stdin: How about "O=c1cc(-c2ccc(Cl)cc2)oc2ccc(CN3CCCCC3)cc12" ?
stdout: 14 µM

stdin: How about "Cc1ccc2c(=O)cc(-c3ccc(N)cc3)oc2c1" ?
stdout: 40.5 µM

stdin: How about "O=c1cc(-c2ccccc2Cl)oc2cc(CN3CCNCC3)ccc12" ?
stdout: 2.58 µM

stdin: How about "O=c1cc(-c2ccc([N+](=O)[O-])cc2)oc2cc(CN3CCNCC3)ccc12" ?
stdout: 4.53 µM

stdin: How about "CCN(CC)Cc1cccc2c(=O)cc(-c3ccc([N+](=O)[O-])cc3)oc12" ?
stdout: 28.8 µM

----------
- System: HepG2
- assayProcedure: Cytotoxicity against Homo sapiens (human) HepG2 cells after 48 hr by MTT reduction assay
- Assay type: functional, cell-based
- conditionSet: HepG2, 48 h
pIC50: −log10 of the molar value.
Kind request: treat 5 as inclusive, so pIC50 at 5 or higher is Condition met, anything lower is Condition not met.

stdin: Given "Cc1ccc2c(=O)cc(-c3ccc(Cl)cc3)oc2c1" , state whether its pIC50 is at least 5.
stdout: Condition met

stdin: How about "CC[N+](CC)(CC)Cc1ccc2oc(-c3ccccc3Cl)cc(=O)c2c1" ?
stdout: Condition not met

stdin: How about "CN1CCN(Cc2ccc3c(=O)cc(-c4ccccc4Cl)oc3c2)CC1" ?
stdout: Condition not met

stdin: How about "CN1CCN(Cc2cc(Cl)cc3c(=O)cc(-c4ccc([N+](=O)[O-])cc4)oc23)CC1" ?
stdout: Condition met

stdin: How about "Cc1ccc2oc(-c3ccc(N)cc3)cc(=O)c2c1" ?
stdout: Condition not met

stdin: How about "O=c1cc(-c2ccccc2Cl)oc2cc(CN3CCCCC3)ccc12" ?
stdout: Condition met

stdin: How about "O=c1cc(-c2ccc(Cl)cc2)oc2c(CN3CCOCC3)cc(Cl)cc12" ?
stdout: Condition met

stdin: How about "O=c1cc(-c2ccccc2Cl)oc2c(CN3CCNCC3)cc(Cl)cc12" ?
stdout: Condition not met

stdin: How about "CN(C)Cc1cc(Cl)cc2c(=O)cc(-c3ccccc3Cl)oc12" ?
stdout: Condition met

----------
- targetOfAssay: Cyclin-dependent kinase 1/cyclin B1 (Homo sapiens)
- Sequence (P06493 whole entry): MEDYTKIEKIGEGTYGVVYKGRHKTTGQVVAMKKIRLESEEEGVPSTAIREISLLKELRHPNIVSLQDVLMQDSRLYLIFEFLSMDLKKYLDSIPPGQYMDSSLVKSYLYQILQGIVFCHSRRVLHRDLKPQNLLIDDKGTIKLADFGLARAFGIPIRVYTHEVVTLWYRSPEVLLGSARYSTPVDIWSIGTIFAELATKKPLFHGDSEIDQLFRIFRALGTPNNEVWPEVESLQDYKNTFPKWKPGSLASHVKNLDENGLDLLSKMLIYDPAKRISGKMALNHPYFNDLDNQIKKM
- Sequence (P14635 whole entry, further chain): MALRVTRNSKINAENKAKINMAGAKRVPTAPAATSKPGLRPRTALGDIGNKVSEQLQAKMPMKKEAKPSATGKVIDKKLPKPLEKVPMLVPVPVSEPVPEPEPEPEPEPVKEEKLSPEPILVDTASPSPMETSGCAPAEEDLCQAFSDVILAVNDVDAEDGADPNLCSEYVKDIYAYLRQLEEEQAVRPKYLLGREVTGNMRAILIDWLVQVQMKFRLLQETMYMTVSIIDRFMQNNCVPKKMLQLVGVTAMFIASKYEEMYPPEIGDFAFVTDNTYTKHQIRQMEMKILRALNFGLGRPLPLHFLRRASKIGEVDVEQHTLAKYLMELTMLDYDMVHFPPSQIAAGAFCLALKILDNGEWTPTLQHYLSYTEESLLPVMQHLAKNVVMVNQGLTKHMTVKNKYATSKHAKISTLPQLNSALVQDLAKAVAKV
- assayProcedure: Inhibition of CDK1/Cyclin B (unknown origin) by Z-LYTE assay
For each entry below, report its pIC50 value.
Expect pIC50 as a plain number equal to -log10 of the molar concentration.

stdin: Which pIC50 is listed for "O=c1cc(-c2ccc([N+](=O)[O-])cc2)oc2c(Cn3ccnc3)cc(Cl)cc12" ?
stdout: 5.67

stdin: How about "O=c1cc(-c2ccc([N+](=O)[O-])cc2)oc2c(CN3CCNCC3)cc(Cl)cc12" ?
stdout: 5.32

stdin: How about "O=c1cc(-c2ccc(Cl)cc2)oc2c(CN3CCOCC3)cc(Cl)cc12" ?
stdout: 5.66

stdin: How about "CCN(CC)Cc1cc(Cl)cc2c(=O)cc(-c3ccccc3Cl)oc12" ?
stdout: 5.69

stdin: How about "CN1CCN(Cc2cc(Cl)cc3c(=O)cc(-c4ccc([N+](=O)[O-])cc4)oc23)CC1" ?
stdout: 5.21

stdin: How about "CN1CCN(Cc2cccc3c(=O)cc(-c4ccc([N+](=O)[O-])cc4)oc23)CC1" ?
stdout: 5.09

stdin: How about "CCN(CC)Cc1cccc2c(=O)cc(-c3ccc([N+](=O)[O-])cc3)oc12" ?
stdout: 5.66

----------
- System: SMMC-7721
- assayProcedure: Cytotoxicity against Homo sapiens (human) SMMC7721 cells after 48 hr by MTT reduction assay
- Assay type: functional, cell-based
- conditionSet: SMMC-7721, 48 h
Response field label takes 1 (yes) when IC50 is strictly below 5 µM and 0 (no) in all other cases.

stdin: For "Cc1ccc2oc(-c3ccccc3Cl)cc(=O)c2c1" , is the recorded IC50 below the cut-off of 5 µM?
stdout: 0 (no)

stdin: How about "CN1CCN(Cc2cccc3c(=O)cc(-c4ccc([N+](=O)[O-])cc4)oc23)CC1" ?
stdout: 1 (yes)

stdin: How about "O=c1cc(-c2ccc([N+](=O)[O-])cc2)oc2c(CN3CCNCC3)cc(Cl)cc12" ?
stdout: 1 (yes)

stdin: How about "CN1CCN(Cc2cc(Cl)cc3c(=O)cc(-c4ccc([N+](=O)[O-])cc4)oc23)CC1" ?
stdout: 0 (no)

stdin: How about "O=c1cc(-c2ccc(Cl)cc2)oc2ccc(CN3CCCCC3)cc12" ?
stdout: 0 (no)

stdin: How about "CN1CCN(Cc2ccc3oc(-c4ccc([N+](=O)[O-])cc4)cc(=O)c3c2)CC1" ?
stdout: 0 (no)

stdin: How about "O=c1cc(-c2ccc([N+](=O)[O-])cc2)oc2c(Cn3ccnc3)cc(Cl)cc12" ?
stdout: 1 (yes)

stdin: How about "CN1CCN(Cc2cc(Cl)cc3c(=O)cc(-c4ccccc4Cl)oc23)CC1" ?
stdout: 1 (yes)

stdin: How about "O=c1cc(-c2ccccc2Cl)oc2c(CN3CCNCC3)cc(Cl)cc12" ?
stdout: 1 (yes)

stdin: How about "O=c1cc(-c2ccc([N+](=O)[O-])cc2)oc2c(CN3CCCCC3)cc(Cl)cc12" ?
stdout: 1 (yes)

stdin: How about "O=c1cc(-c2ccccc2Cl)oc2cc(CN3CCNCC3)ccc12" ?
stdout: 1 (yes)

stdin: How about "Nc1ccc(-c2cc(=O)c3cc(CN4CCCCC4)ccc3o2)cc1" ?
stdout: 1 (yes)

stdin: How about "CN(C)Cc1ccc2c(=O)cc(-c3ccccc3Cl)oc2c1" ?
stdout: 0 (no)

stdin: How about "CN1CCN(Cc2ccc3c(=O)cc(-c4ccc([N+](=O)[O-])cc4)oc3c2)CC1" ?
stdout: 0 (no)

stdin: How about "CN(C)Cc1cc(Cl)cc2c(=O)cc(-c3ccc([N+](=O)[O-])cc3)oc12" ?
stdout: 0 (no)

stdin: How about "CN1CCN(Cc2ccc3c(=O)cc(-c4ccccc4Cl)oc3c2)CC1" ?
stdout: 0 (no)

stdin: How about "O=c1cc(-c2ccc(Cl)cc2)oc2c(CN3CCOCC3)cc(Cl)cc12" ?
stdout: 0 (no)

stdin: How about "O=c1cc(-c2ccc([N+](=O)[O-])cc2)oc2cc(CN3CCNCC3)ccc12" ?
stdout: 1 (yes)

stdin: How about "CCN(CC)Cc1cc(Cl)cc2c(=O)cc(-c3ccccc3Cl)oc12" ?
stdout: 1 (yes)

stdin: How about "CCN(CC)Cc1cc(Cl)cc2c(=O)cc(-c3ccc([N+](=O)[O-])cc3)oc12" ?
stdout: 1 (yes)

stdin: How about "O=c1cc(-c2ccccc2Cl)oc2c(CN3CCCCC3)cc(Cl)cc12" ?
stdout: 1 (yes)

stdin: How about "O=c1cc(-c2ccccc2Cl)oc2c(Cn3ccnc3)cc(Cl)cc12" ?
stdout: 1 (yes)

stdin: How about "O=c1cc(-c2ccc(Cl)cc2)oc2ccc(CN3CCNCC3)cc12" ?
stdout: 1 (yes)

stdin: How about "O=c1cc(-c2ccccc2Cl)oc2c(CN3CCOCC3)cc(Cl)cc12" ?
stdout: 0 (no)

stdin: How about "CN(C)Cc1cc(Cl)cc2c(=O)cc(-c3ccccc3Cl)oc12" ?
stdout: 1 (yes)

----------
- Test system: HepG2
- assayProcedure: Cytotoxicity against Homo sapiens (human) HepG2 cells after 48 hr by MTT reduction assay
- Type: functional, cell-based
- conditionSet: HepG2, 48 h
Response field label takes condition met when IC50 is strictly below 3 µM and condition not met in all other cases.

stdin: For "Cc1cc(Cl)cc2c(=O)cc(-c3ccc(N)cc3)oc12" , is the recorded IC50 below the cut-off of 3 µM?
stdout: condition not met

stdin: How about "CCN(CC)Cc1cc(Cl)cc2c(=O)cc(-c3ccccc3Cl)oc12" ?
stdout: condition not met

stdin: How about "O=c1cc(-c2ccc([N+](=O)[O-])cc2)oc2c(CN3CCNCC3)cc(Cl)cc12" ?
stdout: condition met

stdin: How about "CCN(CC)Cc1cc(Cl)cc2c(=O)cc(-c3ccc([N+](=O)[O-])cc3)oc12" ?
stdout: condition met

stdin: How about "Nc1ccc(-c2cc(=O)c3cc(CN4CCCCC4)ccc3o2)cc1" ?
stdout: condition met

stdin: How about "O=c1cc(-c2ccccc2Cl)oc2c(CN3CCOCC3)cc(Cl)cc12" ?
stdout: condition not met

stdin: How about "O=c1cc(-c2ccc([N+](=O)[O-])cc2)oc2c(CN3CCCCC3)cc(Cl)cc12" ?
stdout: condition not met

stdin: How about "O=c1cc(-c2ccc(Cl)cc2)oc2ccc(CN3CCNCC3)cc12" ?
stdout: condition met
